- TESTED SYSTEM: mSCD1 (Mus musculus, UniProt P13516)
- Sequence (P13516 whole entry): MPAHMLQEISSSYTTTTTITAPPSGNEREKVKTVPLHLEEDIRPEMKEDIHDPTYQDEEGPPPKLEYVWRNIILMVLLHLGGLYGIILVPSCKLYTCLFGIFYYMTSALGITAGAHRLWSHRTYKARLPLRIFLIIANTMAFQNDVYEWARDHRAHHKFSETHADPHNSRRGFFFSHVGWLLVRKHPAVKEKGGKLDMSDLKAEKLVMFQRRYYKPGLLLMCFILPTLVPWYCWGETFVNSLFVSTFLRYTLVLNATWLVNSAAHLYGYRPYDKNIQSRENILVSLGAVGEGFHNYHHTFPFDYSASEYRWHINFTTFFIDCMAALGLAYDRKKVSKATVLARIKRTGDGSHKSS
- ASSAY NAME: Conversion of saturated fatty acids to Δ9 monounsaturated fatty acids in ole1 yeast L8-14C expressing mSCD1 (GLC)
- Type: cell-based
- Parameters: Cloning of the full-length human and mouse SCD cDNAs: The full coding region of human SCDs; expressed in transfected cells; host or cells: Saccharomyces cerevisiae L8-14C (ole1 disruptant), vector p426GPD
- ASSAY SETUP: exogenous fatty acid 0.2 mM, 1% tergitol NP-40, yeast cultured 2 days (FIG. 2)
RECORDED ENDPOINT: conversion of exogenous saturated fatty acid to Δ9 monounsaturated fatty acid

COMPOUND	TESTED SYSTEM	ASSAY VALUE
CCCCCCCCCCCCCCCCC(=O)O [17:0, heptadecanoic acid]	mSCD1 (Mus musculus, UniProt P13516)	43%
CCCCCCCCCCCCC(=O)O [13:0, tridecanoic acid]	mSCD1 (Mus musculus, UniProt P13516)	13%
CCCCCCCCCCCCCC(=O)O [14:0, myristic acid]	mSCD1 (Mus musculus, UniProt P13516)	11%

Numbers sourced from patent US20060281071A1.
